The origin of these recorded values is the supplement of paper PMC10567573.

B1: KLHL14 (parent)
chain: NETGYLSSVECYNLETNEWRYVSS

variants of: B1; assay: protein stability index of a GFP-peptide fusion (GPS, HEK-293T) (PSI 1-6); higher = more stable; conditions: c terminus: a fixed tail appended;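 note: lentivirally expressed fusions sorted by FACS into six bins by GFP to DsRed ratio, PSI derived from sequencing read proportions per bin multiplied by bin number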
Short version: protein stability index at least 3 is satisfied, less is not satisfied.

{"SEQUENCE ENTRY": "NETGYLSSVECYRLETNEWRYVSS [N13R]", "LABEL CLASS": "not satisfied"}
{"SEQUENCE ENTRY": "NETGYLSSVECYNLETNEDRYVSS [W19D]", "LABEL CLASS": "satisfied"}
{"SEQUENCE ENTRY": "METGYLSSVECYNLETNEWRYVSS [N1M]", "LABEL CLASS": "not satisfied"}
{"SEQUENCE ENTRY": "NETGYLSSVECYNLWTNEWRYVSS [E15W]", "LABEL CLASS": "not satisfied"}
{"SEQUENCE ENTRY": "NETGYLSSVECYNLETNGWRYVSS [E18G]", "LABEL CLASS": "not satisfied"}
{"SEQUENCE ENTRY": "NETGYLSSVECYNLETNEWRYVAS [S23A]", "LABEL CLASS": "satisfied"}
{"SEQUENCE ENTRY": "NETGYLSSVECYNLETNEWRYVVS [S23V]", "LABEL CLASS": "satisfied"}
{"SEQUENCE ENTRY": "NETGYLSSVDCYNLETNEWRYVSS [E10D]", "LABEL CLASS": "satisfied"}
{"SEQUENCE ENTRY": "NETGQLSSVECYNLETNEWRYVSS [Y5Q]", "LABEL CLASS": "satisfied"}
{"SEQUENCE ENTRY": "NETGYLSSVECYNLETNEWRYVDS [S23D]", "LABEL CLASS": "satisfied"}
{"SEQUENCE ENTRY": "NETGYLVSVECYNLETNEWRYVSS [S7V]", "LABEL CLASS": "not satisfied"}
{"SEQUENCE ENTRY": "NETKYLSSVECYNLETNEWRYVSS [G4K]", "LABEL CLASS": "satisfied"}
{"SEQUENCE ENTRY": "NETGYLSSVECYNLERNEWRYVSS [T16R]", "LABEL CLASS": "satisfied"}
{"SEQUENCE ENTRY": "NETGYLSSVYCYNLETNEWRYVSS [E10Y]", "LABEL CLASS": "not satisfied"}
{"SEQUENCE ENTRY": "NETGYLSSVECYNLETNEWRSVSS [Y21S]", "LABEL CLASS": "satisfied"}
{"SEQUENCE ENTRY": "NETGYLSSVECDNLETNEWRYVSS [Y12D]", "LABEL CLASS": "satisfied"}
{"SEQUENCE ENTRY": "NETGYLSSVECYNLETKEWRYVSS [N17K]", "LABEL CLASS": "satisfied"}
{"SEQUENCE ENTRY": "NETGYLSSVECYNLETNEWYYVSS [R20Y]", "LABEL CLASS": "not satisfied"}
{"SEQUENCE ENTRY": "NETGYLSSVECYNLETNEWRGVSS [Y21G]", "LABEL CLASS": "satisfied"}
{"SEQUENCE ENTRY": "NETGYLSSVECMNLETNEWRYVSS [Y12M]", "LABEL CLASS": "satisfied"}
{"SEQUENCE ENTRY": "NETGYLSTVECYNLETNEWRYVSS [S8T]", "LABEL CLASS": "satisfied"}
{"SEQUENCE ENTRY": "NETMYLSSVECYNLETNEWRYVSS [G4M]", "LABEL CLASS": "not satisfied"}
{"SEQUENCE ENTRY": "NETGYLSSVESYNLETNEWRYVSS [C11S]", "LABEL CLASS": "satisfied"}
{"SEQUENCE ENTRY": "NETGYLSSVECYNLETNEWRYASS [V22A]", "LABEL CLASS": "satisfied"}
{"SEQUENCE ENTRY": "VETGYLSSVECYNLETNEWRYVSS [N1V]", "LABEL CLASS": "satisfied"}
{"SEQUENCE ENTRY": "NETGYLSSVECYNLETNEWRYVFS [S23F]", "LABEL CLASS": "satisfied"}
{"SEQUENCE ENTRY": "NETGYLCSVECYNLETNEWRYVSS [S7C]", "LABEL CLASS": "not satisfied"}
{"SEQUENCE ENTRY": "NETGYLSSVECYNLETNKWRYVSS [E18K]", "LABEL CLASS": "satisfied"}
{"SEQUENCE ENTRY": "NETGYLSSVECYNQETNEWRYVSS [L14Q]", "LABEL CLASS": "satisfied"}
{"SEQUENCE ENTRY": "NETGYLSSVECYNEETNEWRYVSS [L14E]", "LABEL CLASS": "satisfied"}
{"SEQUENCE ENTRY": "NETLYLSSVECYNLETNEWRYVSS [G4L]", "LABEL CLASS": "not satisfied"}
{"SEQUENCE ENTRY": "NETGYLSSMECYNLETNEWRYVSS [V9M]", "LABEL CLASS": "satisfied"}
{"SEQUENCE ENTRY": "NETGYLWSVECYNLETNEWRYVSS [S7W]", "LABEL CLASS": "not satisfied"}
{"SEQUENCE ENTRY": "NETGYLSSVECYNLETNEWNYVSS [R20N]", "LABEL CLASS": "satisfied"}
{"SEQUENCE ENTRY": "NETGYLSSVECYNLETNEWDYVSS [R20D]", "LABEL CLASS": "satisfied"}
{"SEQUENCE ENTRY": "NETGYLSFVECYNLETNEWRYVSS [S8F]", "LABEL CLASS": "not satisfied"}
{"SEQUENCE ENTRY": "NETGYLSSVECYNLFTNEWRYVSS [E15F]", "LABEL CLASS": "not satisfied"}
{"SEQUENCE ENTRY": "SETGYLSSVECYNLETNEWRYVSS [N1S]", "LABEL CLASS": "satisfied"}
{"SEQUENCE ENTRY": "NETGYLSSVECYNLETNEWRYVSR [S24R]", "LABEL CLASS": "satisfied"}
{"SEQUENCE ENTRY": "NETGYLSPVECYNLETNEWRYVSS [S8P]", "LABEL CLASS": "satisfied"}
{"SEQUENCE ENTRY": "NETGYQSSVECYNLETNEWRYVSS [L6Q]", "LABEL CLASS": "satisfied"}
{"SEQUENCE ENTRY": "NETGYLSSVECYELETNEWRYVSS [N13E]", "LABEL CLASS": "not satisfied"}
{"SEQUENCE ENTRY": "NETGYLFSVECYNLETNEWRYVSS [S7F]", "LABEL CLASS": "not satisfied"}
